Every entry's value here was drawn from PubChem BioAssay (NCI).

Tested on: MDA-MB-435 melanoma
method-notes: NCI-60 one-dose screen, 48 h
experimental-conditions: 10 µM unless noted
Protocol: Growth inhibition of the MDA-MB-435 human Melanoma tumor cell line is measured as a screen for anti-cancer activity. Cells are grown in 96 well plates and exposed to the test compound for 48 hours. Compounds are tested at a single concentration, which is 10^-5 M for most compounds. The reported endpoint is percent growth (GI% or GIPRCNT), where numbers from 0 - 100% represent growth inhibition, and numbers from -100% - 0 represent cell death. […]
This is part of a sample that, as a whole, favours compounds with a hit. Of some 83,000 tested, about 20% had one in any assay. The source made the active and inactive calls. The calls were made as follows: active = growth percent below 10; inactive = the rest.
// classify into active, inactive

Record excerpt, results attached:
>>> cat("O=C(CSc1nc2sc3c(c2c(=O)n1Cc1ccccc1)CCCC3)N1CCN(c2ccccc2)CC1")
"inactive"
>>> cat("CC1(C)CN(Cc2ccccc2)CCN1Cc1ccccc1")
"inactive"
>>> cat("CCCCCCCCOc1ccc(/C=N/Nc2cc(C)nc3ccc(Cl)cc23)cc1")
"active"
>>> cat("CCNC(=O)c1[nH]cc(-c2ccc(OC)cc2)c1-c1cc(OC)c(OC)c(OC)c1")
"active"

// switching to the query molecule
Enquiry: Hello, I am checking results. What call was entered for Cc1nccc2c3ccc(OCc4cn(-c5ccc(Cl)cc5)nn4)cc3n(CCCc3ccccc3)c12 ?
Return: inactive

---

Tested on: NCI/ADR-RES ovarian
method-notes: NCI-60 one-dose screen, 48 h (100 = growth as untreated, 0 = no growth, -100 = all killed)
experimental-conditions: 10 µM unless noted
This is part of a sample that, as a whole, favours compounds with a hit. Of some 83,000 tested, about 20% had one in any assay. The source made the active and inactive calls. How the source made its calls: active means growth percent below 10; inactive means the rest.
assay-metric: growth

>>> test_value("CN1C(=O)N(C)[C@H]2NC(NN)=N[C@H]21")
"105% (inactive)"
>>> test_value("CCOC(=O)C1CC(=O)c2cc(OC)c(OC)cc2C1 (stereo not drawn)")
"98.5% (inactive)"

Enquiry: Find the measured growth: item COc1ccc(-c2nc(SC)nc(N3CCOCC3)c2C#N)cc1 , target or system NCI/ADR-RES ovarian.
Return: 94% (inactive)

---

growth for assorted compounds
Test system: UACC-257 melanoma
method-notes: NCI-60 one-dose screen, 48 h (100 = growth as untreated, 0 = no growth, -100 = all killed)
experimental-conditions: 10 µM unless noted
Compounds without any hit were thinned out: in the full panel of roughly 83,000, 20% have a hit.
Answer format: numeric, % implied, no suffix.

Some solved cases for reference:
>>> test_value("CC(=O)c1c(-c2ccc(OC(F)(F)F)cc2)nc2ccccn12")
81.8
>>> test_value("CCOC(=O)C1CC(=O)c2cc(OC)c(OC)cc2C1 (stereo not drawn)")
87.7

Now look at this one.
Enquiry: What value of growth has been recorded for this entry: C=C(C)[C@H]1CC/C(C)=C/CC[C@]2(C)O[C@H]2CC/C(COC(=O)[C@@H](OC(C)=O)[C@H](NC(=O)c2ccccc2)c2ccccc2)=C\[C@@H]1O
Return: 83.1

---

Tested on: IGROV1 ovarian
method-notes: NCI-60 one-dose screen, 48 h
experimental-conditions: 10 µM unless noted
Procedure: Growth inhibition of the IGROV1 human tumor cell line is measured as a screen for anti-cancer activity. Cells are grown in 96 well plates and exposed to the test compound for 48 hours. Compounds are tested at a single concentration, which is 10^-5 M for most compounds. The reported endpoint is percent growth (GI% or GIPRCNT), where numbers from 0 - 100% represent growth inhibition, and numbers from -100% - 0 represent cell death. For example, a value of 40 represents 60% growth inhibition. […]
About 83,000 compounds went through this panel and 20% of them were active in at least one assay; those are over-represented in the sample as a whole. Active and inactive are the calls of the source. How the source made its calls: active means growth percent below 10; inactive means the rest.
Return exactly one item of Y (active), N (inactive)

# count of solved cases: 5
>>> cat("C=C(C)[C@@H]1CC[C@]2(CO)CC[C@]3(C)[C@H](CC[C@@H]4[C@@]5(C)CCCNC(C)(C)[C@@H]5CC[C@]43C)[C@@H]12")
"N"
>>> cat("COc1cc(C2CC(c3cccc(Nc4ccncc4)c3)=NN2C(C)=O)cc(OC)c1OC (centres undefined)")
"N"
>>> cat("CC(Oc1ccc(C(=O)NS(=O)(=O)C(C)(C)C)cc1C(F)(F)F)c1ccc(Oc2ccccc2)cn1 (centres undefined)")
"N"
>>> cat("CCC(C)N(CCNc1cc(OC)cc2cccnc12)CCC(C)C (centres undefined)")
"N"
>>> cat("CC1(C)NCCC[C@]2(C)[C@H]3CC=C4[C@@H]5C[C@@](C)(CO)CC[C@]5(C)CC[C@@]4(C)[C@]3(C)CC[C@@H]12")
"N"

Enquiry: Query: recorded result category for COc1ccc(CC(C)=C(c2ccc(OCCN(C)C)cc2)c2ccc(OCCN(C)C)cc2)cc1 in this test
Return: N

Enquiry: What is the recorded call for this compound in the test? O=C(Nc1nc(-c2ccccc2Cl)cs1)c1cc(-c2ccccc2)nc2ccc(Cl)cc12
Return: N

Enquiry: Hi, do you know how CN1CCN(c2cnc(C(=O)Nc3cc(F)cc4cccnc34)cn2)CC1 came out in this test?
Return: Y

Enquiry: Hey, what did the test say about C1=C2CNCC3=Cc4ccc5ccccc5c4OC23Oc2c1ccc1ccccc21 ?
Return: N

---

System: IGROV1 ovarian
method-notes: NCI-60 one-dose screen, 48 h
experimental-conditions: 10 µM unless noted
Compounds without any hit were thinned out: in the full panel of roughly 83,000, 20% have a hit. The source made the active and inactive calls. How the source made its calls: active means growth percent below 10; inactive means the rest.
Write down one outcome, taken from True = active, False = inactive

Here are 3 compounds together with their reported answers.
>>> cat("CC(=O)N1N=C(c2cccc(Nc3ccncc3)c2)CC1c1ccc2c(c1)OCO2 (stereo not drawn)")
"False"
>>> cat("COc1ccc(Nn2c(SCC(=O)Nc3nc(-c4ccc(Cl)cc4)cs3)nc(C)c2C)cc1")
"False"
>>> cat("CCC(C)C(N)C(=O)NNc1n[nH]c(=S)n1N (stereo not drawn)")
"False"

Enquiry: For Cc1cccc(Oc2ccc(Nc3ncnc4ccc(NC(=O)CNCCO)cc34)cc2Cl)c1 , what call appears in the results of this test?
Return: True

Enquiry: For COc1cccc(CCC(=O)c2cc3c(N)c(C(=O)Nc4ccccc4)sc3nc2C)c1 , what call appears in the results of this test?
Return: False

Enquiry: Record request — test call for CCc1nc(C)cn1C(=O)OCc1nc2nc(Cl)nc(N3CCOCC3)c2[nH]1
Return: True

Enquiry: Recorded test outcome, item COc1ccc(C2CC(c3cccc(Nc4ccncc4)c3)=NN2c2ccccc2)cc1 (stereo not drawn)
Return: False

Enquiry: Given N/C(=N\N=C\c1cc2ccccc2[nH]1)N/N=C/c1cc2ccccc2[nH]1 , state the outcome it received in this test.
Return: False

Enquiry: Give the logged outcome of this assay for the following compound: COc1cc(C2NC(c3cc(OC)c(OC)c(OC)c3)C(C#N)(C#N)C2(C#N)C#N)cc(OC)c1OC (stereo not drawn)
Return: False

Enquiry: Could you kindly confirm the outcome this assay logged for CSc1nc(O)c(-c2ccccc2)c(=O)[nH]1 ?
Return: False

Enquiry: What did this assay record as the result for C=CCn1c(SCC(=O)Nc2ccc(C(=O)/C=C/c3cc(OC)c(OC)c(OC)c3)cc2)nnc1-c1cc(OC)c(OC)c(OC)c1 ?
Return: False

Enquiry: Can you look up the reported call for O=C(/C=C/c1ccc[nH]1)c1ccc(-n2ccc(C(F)(F)F)n2)cc1 for me?
Return: False

Enquiry: Could you kindly confirm the outcome this assay logged for NC(=O)C1(N2CCCCC2)CCN(CCCC(=O)c2ccc(F)cc2)CC1 ?
Return: False

---

Test system: UACC-62 melanoma
method-notes: NCI-60 one-dose screen, 48 h (100 = growth as untreated, 0 = no growth, -100 = all killed)
experimental-conditions: 10 µM unless noted
About 83,000 compounds went through this panel and 20% of them were active in at least one assay; those are over-represented in the sample as a whole.
# growth per entry
The reply should be a number in %, with the unit left off.

>>> test_value("Clc1cc(Cl)cc(N2N=C(c3cccc(Nc4ccncc4)c3)CC2c2ccc3c(c2)OCO3)c1 (stereo unspecified)")
97.6

Enquiry: I'd like to know its growth. The molecule in question is O=C(Nc1ccc(Nc2ncccn2)cc1)NC1C=c2ccccc2=CC1 (stereo unspecified)
Return: 92.9

Enquiry: Entry COc1cc2c(cc1[N+](=O)[O-])-c1ccc([N+](=O)[O-])cc1/C2=N\O : reported growth = ?
Return: 75.9

Enquiry: Look at this molecule and give its reported growth. Cc1[nH]c(C(=O)Nc2ccccc2OCc2cccc(C(=O)NCCN)c2)c(Cl)c1Cl
Return: 92.6

Enquiry: Which growth is reported for this molecule? c1ccc(-c2nn(-c3ccccc3)[n+](-c3ccccc3-c3ccccc3)n2)cc1
Return: 26.4

Enquiry: Given Clc1nc(Cl)c2ncn(CC3(Cn4cnc5c(Cl)nc(Cl)nc54)COC3)c2n1 , state its recorded growth.
Return: -92.4

Enquiry: Requested read-out: growth. Entry: c1ccc2c(-c3c4ccsc4cc4[nH]c5ccccc5c34)c[nH]c2c1
Return: 44.8
